tested on: GA-10 (Burkitt's Lymphoma); assay: Bliss excess, mean over the matrix (fraction); higher = more synergy
Experimental Endpoint: Bliss excess

Compound	Bliss excess
Cc1cc2ncnn2cc1Nc1ncc2c(n1)n(C1CCOCC1)c(=O)n2C [AZD7648] + CCN(CCO)CCCOc1ccc2c(Nc3cc(CC(=O)Nc4cccc(F)c4)[nH]n3)ncnc2c1 [AZD2811] (first compound max 10 µM, 7x7, partner max 1 µM)	0.112
Cc1c2c(nn1C)CSCc1cc(n(C)n1)CSc1cc(c3ccccc3c1)OCCCc1c(C(=O)O)n(C)c3c-2c(Cl)ccc13 [AZD5991] + Cn1cnc2c(F)c(Nc3ccc(Br)cc3Cl)c(C(=O)NOCCO)cc21 [Selumetinib] (first compound max 1 µM, 7x7, partner max 3 µM)	0.0086

Next up:
query: Return the recorded Bliss excess value; entry: Cc1c2c(nn1C)CSCc1cc(n(C)n1)CSc1cc(c3ccccc3c1)OCCCc1c(C(=O)O)n(C)c3c-2c(Cl)ccc13 [AZD5991] + CC1(C)CCC(CN2CCN(c3ccc(C(=O)NS(=O)(=O)c4ccc(NCC5CCOCC5)c([N+](=O)[O-])c4)c(Oc4cnc5[nH]ccc5c4)c3)CC2)=C(c2ccc(Cl)cc2)C1 [Venetoclax] (first compound max 1 µM, 7x7, partner max 1 µM)
result: -0.0658

###

Recorded combination Emax, one value per entry.
test system: EPLC-272H (Other Solid Carcinomas); experiment: combination Emax (second highest fraction inhibited in the dose matrix, 72 h); higher = more inhibition; extreme values may be limits of the assay
# output: bare number, no unit

Answered cases to consult:
Compound	Numeric Result
C[C@@H]1COCCN1c1cc(C2([S@](C)(=N)=O)CC2)nc(-c2ccnc3[nH]ccc23)n1 [AZD6738] + O=C(c1cc(Cc2n[nH]c(=O)c3ccccc23)ccc1F)N1CCN(C(=O)C2CC2)CC1 [Olaparib] (first compound max 10 µM, 7x7, partner max 10 µM)	0.824
CC1(C)CCC(CN2CCN(c3ccc(C(=O)NS(=O)(=O)c4ccc(NCC5CCOCC5)c([N+](=O)[O-])c4)c(Oc4cnc5[nH]ccc5c4)c3)CC2)=C(c2ccc(Cl)cc2)C1 [Venetoclax] + C[C@@H]1COCCN1C2=NC(=NC(=C2)C3(CC3)[S@](=N)(=O)C)C4=C5C=CNC5=NC=C4 [AZD6738] (first compound max 1 µM, 7x7, partner max 10 µM)	0.873
Cc1c2c(nn1C)CSCc1cc(n(C)n1)CSc1cc(c3ccccc3c1)OCCCc1c(C(=O)O)n(C)c3c-2c(Cl)ccc13 [AZD5991] + C=CCn1c(=O)c2cnc(Nc3ccc(N4CCN(C)CC4)cc3)nc2n1-c1cccc(C(C)(C)O)n1 [AZD1775] (first compound max 1 µM, partner max 1 µM)	0.971
C=CCn1c(=O)c2cnc(Nc3ccc(N4CCN(C)CC4)cc3)nc2n1-c1cccc(C(C)(C)O)n1 [AZD1775] + C[C@@H]1COCCN1C2=NC(=NC(=C2)C3(CC3)[S@](=N)(=O)C)C4=C5C=CNC5=NC=C4 [AZD6738] (first compound max 1 µM, partner max 10 µM)	0.882
CC1(C)CCC(CN2CCN(c3ccc(C(=O)NS(=O)(=O)c4ccc(NCC5CCOCC5)c([N+](=O)[O-])c4)c(Oc4cnc5[nH]ccc5c4)c3)CC2)=C(c2ccc(Cl)cc2)C1 [Venetoclax] + CN(C)CCCOc1ccc(-c2ccc3ncc4c(c3c2)n(C2CCOCC2)c(=O)n4C)cn1 [AZD0156] (first compound max 1 µM, 7x7, partner max 1 µM)	0.395
Cc1c2c(nn1C)CSCc1cc(n(C)n1)CSc1cc(c3ccccc3c1)OCCCc1c(C(=O)O)n(C)c3c-2c(Cl)ccc13 [AZD5991] + Cc1cc2ncnn2cc1Nc1ncc2c(n1)n(C1CCOCC1)c(=O)n2C [AZD7648] (first compound max 1 µM, 7x7, partner max 10 µM)	0.94

query: Return the recorded combination Emax value; entry: CN(CCO)CC[C@H](CSc1ccccc1)Nc1ccc(S(=O)(=O)NC(=O)c2ccc(N3CCC([C@@H](O)c4ccccc4-c4ccc(Cl)cc4)CC3)cc2)cc1S(=O)(=O)C(F)(F)F [AZD4320] + C1CN(CCC1(C(=O)N[C@@H](CCO)C2=CC=C(C=C2)Cl)N)C3=NC=NC4=C3C=CN4 [Capivasertib] (first compound max 1 µM, 7x7, partner max 3 µM)
result: 0.642

###

system: KYSE-220 (Esophageal Squamous Cell Carcinoma); assay: Bliss excess, mean over the matrix (fraction); higher = more synergy
Recorded Bliss excess, one value per entry.
# output: bare number, no unit

Answered cases to consult:
Compound	Assayed Target	Bliss excess
O=C(c1cc(Cc2n[nH]c(=O)c3ccccc23)ccc1F)N1CCN(C(=O)C2CC2)CC1 [Olaparib] + COc1nnc2ccc(N3CCC(c4ccc(OCCN5CCN(C)C(=O)[C@H]5C)cc4)CC3)nn12 [AZD5153] (first compound max 10 µM, 7x7, partner max 1 µM)	KYSE-220 (Esophageal Squamous Cell Carcinoma)	-0.045
O=C(c1cc(Cc2n[nH]c(=O)c3ccccc23)ccc1F)N1CCN(C(=O)C2CC2)CC1 [Olaparib] + CN(CC[C@H](CSC1=CC=CC=C1)NC2=C(C=C(C=C2)S(=O)(=O)NC(=O)C3=CC=C(C=C3)N4CCC(CC4)[C@H](C5=CC=CC=C5C6=CC=C(C=C6)Cl)O)S(=O)(=O)C(F)(F)F)CCO [AZD4320] (first compound max 10 µM, 7x7, partner max 1 µM)	KYSE-220 (Esophageal Squamous Cell Carcinoma)	-0.0169

Next up:
query: Return the recorded Bliss excess value; entry: C=CCn1c(=O)c2cnc(Nc3ccc(N4CCN(C)CC4)cc3)nc2n1-c1cccc(C(C)(C)O)n1 [AZD1775] + CCc1c2c(nc3ccc(O)cc13)-c1cc3c(c(=O)n1C2)COC(=O)[C@]3(O)CC [SN-38] (first compound max 1 µM, partner max 0.3 µM)
result: -0.0563

###

tested on: JHU-022 (Oral Cavity Carcinoma); assay: combination Emax (second highest fraction inhibited in the dose matrix, 72 h); higher = more inhibition; extreme values may be limits of the assay
Response field class: enum, chosen by comparing combination Emax against low class: < 0.4; middle class: ≥ 0.4 and < 0.5; high class: ≥ 0.5

Compound	Assayed Target	Discrete Label
O=C(c1cc(Cc2n[nH]c(=O)c3ccccc23)ccc1F)N1CCN(C(=O)C2CC2)CC1 [Olaparib] + CN(CC[C@H](CSC1=CC=CC=C1)NC2=C(C=C(C=C2)S(=O)(=O)NC(=O)C3=CC=C(C=C3)N4CCC(CC4)[C@H](C5=CC=CC=C5C6=CC=C(C=C6)Cl)O)S(=O)(=O)C(F)(F)F)CCO [AZD4320] (first compound max 10 µM, 7x7, partner max 1 µM)	JHU-022 (Oral Cavity Carcinoma)	low class
COc1cc2c(cc1OCCCCCOc1cc3c(cc1OC)C(=O)N1C=C(C)C[C@H]1C=N3)N=C[C@@H]1CC(C)=CN1C2=O [SG3199] + O=C(c1cc(Cc2n[nH]c(=O)c3ccccc23)ccc1F)N1CCN(C(=O)C2CC2)CC1 [Olaparib] (first compound max 0.001 µM, 7x7, partner max 10 µM)	JHU-022 (Oral Cavity Carcinoma)	low class
COc1nnc2ccc(N3CCC(c4ccc(OCCN5CCN(C)C(=O)[C@H]5C)cc4)CC3)nn12 [AZD5153] + CC1(C)CCC(CN2CCN(c3ccc(C(=O)NS(=O)(=O)c4ccc(NCC5CCOCC5)c([N+](=O)[O-])c4)c(Oc4cnc5[nH]ccc5c4)c3)CC2)=C(c2ccc(Cl)cc2)C1 [Venetoclax] (first compound max 1 µM, 7x7, partner max 1 µM)	JHU-022 (Oral Cavity Carcinoma)	middle class

query: Which class holds NC1(C(=O)N[C@@H](CCO)c2ccc(Cl)cc2)CCN(c2ncnc3[nH]ccc23)CC1 [Capivasertib] + CCN(CCO)CCCOc1ccc2c(Nc3cc(CC(=O)Nc4cccc(F)c4)[nH]n3)ncnc2c1 [AZD2811] (first compound max 10 µM, 7x7, partner max 1 µM) ?
result: middle class

query: Which class holds CN(CCO)CC[C@H](CSc1ccccc1)Nc1ccc(S(=O)(=O)NC(=O)c2ccc(N3CCC([C@@H](O)c4ccccc4-c4ccc(Cl)cc4)CC3)cc2)cc1S(=O)(=O)C(F)(F)F [AZD4320] + CCN(CCO)CCCOc1ccc2c(Nc3cc(CC(=O)Nc4cccc(F)c4)[nH]n3)ncnc2c1 [AZD2811] (first compound max 1 µM, 7x7, partner max 1 µM) ?
result: low class

###

test system: NCI-H1703 (Squamous Cell Lung Carcinoma); test: combination Emax (second highest fraction inhibited in the dose matrix, 72 h); higher = more inhibition; extreme values may be limits of the assay
Experimental Endpoint: combination Emax
# output: bare number, no unit

Answered cases to consult:
Compound	Assayed Target	combination Emax
NC1(C(=O)N[C@@H](CCO)c2ccc(Cl)cc2)CCN(c2ncnc3[nH]ccc23)CC1 [Capivasertib] + Cn1cnc2c(F)c(Nc3ccc(Br)cc3Cl)c(C(=O)NOCCO)cc21 [Selumetinib] (first compound max 10 µM, 7x7, partner max 10 µM)	NCI-H1703 (Squamous Cell Lung Carcinoma)	0.606
C=CCn1c(=O)c2cnc(Nc3ccc(N4CCN(C)CC4)cc3)nc2n1-c1cccc(C(C)(C)O)n1 [AZD1775] + CCc1c2c(nc3ccc(O)cc13)-c1cc3c(c(=O)n1C2)COC(=O)[C@]3(O)CC [SN-38] (first compound max 1 µM, partner max 0.3 µM)	NCI-H1703 (Squamous Cell Lung Carcinoma)	0.992
CN(C)CCCOc1ccc(-c2ccc3ncc4c(c3c2)n(C2CCOCC2)c(=O)n4C)cn1 [AZD0156] + O=C(c1cc(Cc2n[nH]c(=O)c3ccccc23)ccc1F)N1CCN(C(=O)C2CC2)CC1 [Olaparib] (first compound max 3 µM, partner max 3 µM)	NCI-H1703 (Squamous Cell Lung Carcinoma)	0.582
COc1nnc2ccc(N3CCC(c4ccc(OCCN5CCN(C)C(=O)[C@H]5C)cc4)CC3)nn12 [AZD5153] + CCN(CCO)CCCOc1ccc2c(Nc3cc(CC(=O)Nc4cccc(F)c4)[nH]n3)ncnc2c1 [AZD2811] (first compound max 1 µM, 7x7, partner max 1 µM)	NCI-H1703 (Squamous Cell Lung Carcinoma)	0.721
COc1cc2ncnc(Nc3ccc(F)c(Cl)c3)c2cc1OCCCN1CCOCC1 [Gefitinib] + CC(C)n1c(=O)n(C)c2cnc3cc(F)c(-c4ccc(OCCCN5CCCCC5)nc4)cc3c21 [AZD1390] (first compound max 10 µM, 7x7, partner max 0.3 µM)	NCI-H1703 (Squamous Cell Lung Carcinoma)	0.305

query: Return the recorded combination Emax value; entry: Cc1cc2ncnn2cc1Nc1ncc2c(n1)n(C1CCOCC1)c(=O)n2C [AZD7648] + CCN(CCO)CCCOc1ccc2c(Nc3cc(CC(=O)Nc4cccc(F)c4)[nH]n3)ncnc2c1 [AZD2811] (first compound max 10 µM, 7x7, partner max 1 µM)
result: 0.688

query: Return the recorded combination Emax value; entry: CN(CCO)CC[C@H](CSc1ccccc1)Nc1ccc(S(=O)(=O)NC(=O)c2ccc(N3CCC([C@@H](O)c4ccccc4-c4ccc(Cl)cc4)CC3)cc2)cc1S(=O)(=O)C(F)(F)F [AZD4320] + Cn1cnc2c(F)c(Nc3ccc(Br)cc3Cl)c(C(=O)NOCCO)cc21 [Selumetinib] (first compound max 1 µM, 7x7, partner max 3 µM)
result: 0.298

query: Return the recorded combination Emax value; entry: CC(=O)Nc1cccc(-n2c(=O)n(C3CC3)c(=O)c3c(Nc4ccc(I)cc4F)n(C)c(=O)c(C)c32)c1 [Trametinib] + Cc1nc(-c2cn3c(n2)-c2ccc(-c4cnn(C(C)(C)C(N)=O)c4)cc2OCC3)n(C(C)C)n1 [Taselisib] (first compound max 1 µM, 7x7, partner max 10 µM)
result: 0.759

query: Return the recorded combination Emax value; entry: COc1nnc2ccc(N3CCC(c4ccc(OCCN5CCN(C)C(=O)[C@H]5C)cc4)CC3)nn12 [AZD5153] + Cn1cnc2c(F)c(Nc3ccc(Br)cc3Cl)c(C(=O)NOCCO)cc21 [Selumetinib] (first compound max 1 µM, 7x7, partner max 10 µM)
result: 0.626

query: Return the recorded combination Emax value; entry: C[C@@H]1COCCN1c1cc(C2([S@](C)(=N)=O)CC2)nc(-c2ccnc3[nH]ccc23)n1 [AZD6738] + O=C(c1cc(Cc2n[nH]c(=O)c3ccccc23)ccc1F)N1CCN(C(=O)C2CC2)CC1 [Olaparib] (first compound max 10 µM, 7x7, partner max 10 µM)
result: 0.847

query: Return the recorded combination Emax value; entry: COc1cc2c(cc1OCCCCCOc1cc3c(cc1OC)C(=O)N1C=C(C)C[C@H]1C=N3)N=C[C@@H]1CC(C)=CN1C2=O [SG3199] + O=C(c1cc(Cc2n[nH]c(=O)c3ccccc23)ccc1F)N1CCN(C(=O)C2CC2)CC1 [Olaparib] (first compound max 0.001 µM, 7x7, partner max 10 µM)
result: 0.0514

query: Return the recorded combination Emax value; entry: C=CCn1c(=O)c2cnc(Nc3ccc(N4CCN(C)CC4)cc3)nc2n1-c1cccc(C(C)(C)O)n1 [AZD1775] + Nc1ccn([C@@H]2O[C@H](CO)[C@@H](O)C2(F)F)c(=O)n1 [Gemcitabine] (first compound max 1 µM, partner max 0.3 µM)
result: 0.984

query: Return the recorded combination Emax value; entry: Cc1cc2ncnn2cc1Nc1ncc2c(n1)n(C1CCOCC1)c(=O)n2C [AZD7648] + O=C(c1cc(Cc2n[nH]c(=O)c3ccccc23)ccc1F)N1CCN(C(=O)C2CC2)CC1 [Olaparib] (first compound max 10 µM, 7x7, partner max 10 µM)
result: 0.417

query: Return the recorded combination Emax value; entry: Cc1c2c(nn1C)CSCc1cc(n(C)n1)CSc1cc(c3ccccc3c1)OCCCc1c(C(=O)O)n(C)c3c-2c(Cl)ccc13 [AZD5991] + C1CN(CCC1(C(=O)N[C@@H](CCO)C2=CC=C(C=C2)Cl)N)C3=NC=NC4=C3C=CN4 [Capivasertib] (first compound max 1 µM, 7x7, partner max 3 µM)
result: 0.847
